Molecular target: rat mGlu5 (Rattus norvegicus (Rat), UniProt P31424)
Sequence (P31424 21-1203): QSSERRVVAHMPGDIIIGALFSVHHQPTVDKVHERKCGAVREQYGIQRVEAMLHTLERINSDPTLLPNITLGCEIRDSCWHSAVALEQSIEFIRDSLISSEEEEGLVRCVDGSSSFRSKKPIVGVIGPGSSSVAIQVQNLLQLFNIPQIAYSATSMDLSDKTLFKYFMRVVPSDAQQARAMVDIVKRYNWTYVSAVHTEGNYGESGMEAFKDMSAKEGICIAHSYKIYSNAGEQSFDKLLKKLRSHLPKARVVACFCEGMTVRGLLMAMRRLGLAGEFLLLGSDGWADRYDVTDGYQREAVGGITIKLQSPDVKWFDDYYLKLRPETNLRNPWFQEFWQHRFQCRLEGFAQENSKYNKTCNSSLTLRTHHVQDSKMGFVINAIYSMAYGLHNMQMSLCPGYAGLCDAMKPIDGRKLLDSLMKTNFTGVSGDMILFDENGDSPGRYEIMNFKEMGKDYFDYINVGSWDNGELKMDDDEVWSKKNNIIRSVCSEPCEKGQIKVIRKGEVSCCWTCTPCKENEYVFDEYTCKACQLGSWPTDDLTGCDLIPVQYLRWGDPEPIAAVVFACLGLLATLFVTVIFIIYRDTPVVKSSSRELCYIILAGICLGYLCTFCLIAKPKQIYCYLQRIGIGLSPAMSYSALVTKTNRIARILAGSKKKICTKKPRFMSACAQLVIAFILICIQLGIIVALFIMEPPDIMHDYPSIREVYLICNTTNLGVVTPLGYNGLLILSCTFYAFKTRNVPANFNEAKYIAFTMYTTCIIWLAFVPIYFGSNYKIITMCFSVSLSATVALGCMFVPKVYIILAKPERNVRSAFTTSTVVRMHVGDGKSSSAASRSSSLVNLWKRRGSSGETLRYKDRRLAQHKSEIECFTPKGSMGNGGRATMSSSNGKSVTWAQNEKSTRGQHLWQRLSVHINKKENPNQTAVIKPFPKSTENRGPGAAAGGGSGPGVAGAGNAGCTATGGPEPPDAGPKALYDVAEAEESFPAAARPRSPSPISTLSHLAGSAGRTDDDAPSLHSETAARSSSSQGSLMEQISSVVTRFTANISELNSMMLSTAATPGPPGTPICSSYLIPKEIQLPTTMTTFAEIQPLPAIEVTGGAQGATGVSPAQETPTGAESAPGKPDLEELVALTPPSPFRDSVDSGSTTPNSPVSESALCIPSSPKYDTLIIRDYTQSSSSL
Experiment: mGlu5 Ca2+ flux assay
Assay type: cell-based
Conditions: PAM; response at 30 μM test compound as percentage of maximal response to glutamate; read-out: rat mGlu5 Glu max (%)
Assign Satisfied whenever activity at 30 µM does not fall below 90%; assign Not satisfied whenever it does.

1. O=c1nc(OCCOc2ccccc2)ccn1-c1ccc(F)cc1 : Satisfied

hey, is activity at 30 µM for this one >= 90%? `O=c1cc(OCCOc2ccc(F)cc2)ccn1-c1ccc(F)cc1` Satisfied

hey, is activity at 30 µM for this one >= 90%? `O=c1cc(OCCOc2ccccc2F)ccn1-c1ccc(F)cc1` Satisfied

hey, is activity at 30 µM for this one >= 90%? `O=c1cc(OCCOc2cccc(F)c2)ccn1-c1ccc(F)cc1` Satisfied

hey, is activity at 30 µM for this one >= 90%? `N#Cc1ccnc(OCCOc2ccn(-c3ccc(F)cc3)c(=O)c2)c1` Not satisfied

hey, is activity at 30 µM for this one >= 90%? `N#Cc1cc(F)cc(-n2ccc(OCCOc3ccccc3)cc2=O)c1` Not satisfied

hey, is activity at 30 µM for this one >= 90%? `O=c1cc(OCCOc2ccc(F)nc2)ccn1-c1ccc(F)cc1` Not satisfied

hey, is activity at 30 µM for this one >= 90%? `O=c1cc(OCCOc2ccc(Cl)cc2)ccn1-c1ccc(F)cc1` Not satisfied

hey, is activity at 30 µM for this one >= 90%? `O=c1cc(OCCOc2ccc(Cl)cn2)ccn1-c1ccc(F)cc1` Not satisfied

###

Biological target: UniProt:P31422
Sequence (P31422 23-879): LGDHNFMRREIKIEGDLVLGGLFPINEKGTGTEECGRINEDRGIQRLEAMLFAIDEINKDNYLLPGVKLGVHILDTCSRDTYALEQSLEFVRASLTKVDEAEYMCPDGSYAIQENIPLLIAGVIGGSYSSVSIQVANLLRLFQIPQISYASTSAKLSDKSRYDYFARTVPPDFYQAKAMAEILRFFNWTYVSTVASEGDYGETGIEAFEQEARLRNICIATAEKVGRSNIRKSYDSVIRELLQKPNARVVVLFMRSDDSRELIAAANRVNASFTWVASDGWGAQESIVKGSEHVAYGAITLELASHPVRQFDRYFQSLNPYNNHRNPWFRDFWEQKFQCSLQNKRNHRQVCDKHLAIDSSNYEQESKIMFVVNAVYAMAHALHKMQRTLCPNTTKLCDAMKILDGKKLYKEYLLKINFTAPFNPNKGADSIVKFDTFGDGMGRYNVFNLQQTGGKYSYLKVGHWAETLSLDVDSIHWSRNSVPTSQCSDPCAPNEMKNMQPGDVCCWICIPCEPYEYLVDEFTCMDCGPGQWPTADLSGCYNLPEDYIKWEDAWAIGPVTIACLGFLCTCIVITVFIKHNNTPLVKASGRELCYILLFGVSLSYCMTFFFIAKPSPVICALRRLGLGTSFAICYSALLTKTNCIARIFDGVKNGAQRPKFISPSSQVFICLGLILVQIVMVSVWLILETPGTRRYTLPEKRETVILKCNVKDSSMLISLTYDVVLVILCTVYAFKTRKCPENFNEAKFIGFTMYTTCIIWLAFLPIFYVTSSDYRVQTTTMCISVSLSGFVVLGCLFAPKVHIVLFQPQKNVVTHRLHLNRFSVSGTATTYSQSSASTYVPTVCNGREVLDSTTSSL
Experiment: mGlu3 Ca2+ flux assay
Details: NAM, glutamate EC80; >10,000 = decrease without plateau; >30,000 = no measurable activity
metric: IC50 (nM)
Answers are plain numbers, in nM.

1. O=c1cc(OCCOc2ccccc2)ccn1-c1cccc(F)c1 [Compound 19] : 434
2. O=c1cc(OCCOc2ccccc2)ccn1-c1ccc(F)c(F)c1 [Compound 20] : 323

Need IC50 of N#Cc1cccc(-n2ccc(OCCOc3ccccc3)cc2=O)c1 [Compound 22] , thanks. 559

###

Target: rat mGlu5 (Rattus norvegicus (Rat), UniProt P31424)
Test: mGlu5 Ca2+ flux assay
Assay type: cell-based
metric: EC50 (nM)
One number for each entry, in nM.

In the examples that follow, each entry is paired with its recorded EC50.
1) O=c1cc(OCCOc2ccccc2)ccn1-c1ccc(F)c(F)c1 : 344
2) O=c1cc(OCCOc2ccccc2)ccn1-c1cccc(F)c1 : 1970

Attention now shifts to the item below.
Need EC50 of `O=c1cc(OCCOc2ccccc2)ccn1-c1ccc(F)cc1` , thanks. 567

###

Target: rat mGlu5 (Rattus norvegicus (Rat))
Assay: mGlu5 Ca2+ flux assay
Details: noted as weak NAM, glutamate EC80; read-out: rat mGlu5 EC50 or IC50
Method: HEK 293A cells stably expressing rat mGlu5 were plated in black-walled, clear-bottomed, poly-D-lysine coated 384-well plates in 20 μL of assay medium (DMEM containing 10% dialyzed FBS, 20 mM HEPES, 100 units/mL penicillin/streptomycin plus 250 ng/mL Fungizone, and 1 mM sodium pyruvate) at a density of 20K cells/well. The cells were grown overnight at 37° C. in the presence of 5% CO2. […] Ca^2+ flux was measured using the Functional Drug Screening System (FDSS7000, Hamamatsu, Japan). […]
metric: IC50

Need IC50 of `N#Cc1cccc(OCCOc2ccn(-c3ccc(F)cc3)c(=O)c2)c1` , thanks. > 10 µM
